From: ChEMBL document CHEMBL3433997

Recorded inhibition by entry
target: Glucose transporter (Leishmania mexicana); assay: ST_JUDE_LEISH: Cytotoxicity at 2uM final concentration against transgenic Leishmania Mexicana promastigotes LmGT2 that are glucose transport deficient and complemented with the L. Mexicana glucose transporter 2. Activity is measured by DNA content using SYBR green in vitro; type: functional
Give the quantity in %, number only.

INSERT INTO assay_data (compound, numeric_result) VALUES
  ('Cc1ccc(Nc2nc(C)cc(NC3CC3)n2)cc1', 7),
  ('CCOc1c(CNCCCNc2nc3ccccc3[nH]2)cc(I)cc1OC', 2.86),
  ('COc1cc2nc(NCCn3cccn3)nc(NCCc3ccccc3)c2cc1OC', 6.96),
  ('CC(=O)Nc1cccc(CN(Cc2ccc(-c3ccc(CNCc4cccnc4)cn3)cc2)C(=O)Cc2cccnc2)c1', 14),
  ('CCN1CCN(c2cc(C)c3cc(NC(=O)c4ccc(N(CC)CC)cc4)ccc3n2)CC1', -3.38),
  ('Oc1c(Cl)cc(Nc2nccc(Nc3ccc(Oc4ccccc4)cc3)n2)cc1Cl', 1.16),
  ('CCOC(=O)C1=C(C)N=c2sc(=Cc3cc(Cl)ccc3O)c(=O)n2C1c1cc(OC)c(OC)cc1Br (centres undefined)', 11.5),
  ('Cc1[nH]c(C)c(-c2ccc(-c3ccc(Cl)cc3)cc2)c(=O)c1Cl', 1.13),
  ('N#Cc1ccc(C=CC(=O)NC2CCC(CCN3CCc4ccc(-c5cnccn5)cc4CC3)CC2)cc1 (centres undefined)', 0.59),
  ('CC(C)COc1ccc(Cl)cc1Nc1nc(-c2nc3ccccc3[nH]2)cs1', 1.01);

Req: Give the reported inhibition for this compound. `Cn1c(Sc2ncnc3sccc23)nc2ccccc21`
Resp: 2.32

Req: Please list inhibition recorded for the compound `CN(/N=C/c1ccc(Cl)cc1)c1nc(NCCc2ccc(O)cc2)nc(N2CCNCC2)n1`
Resp: 6.34

Req: State its inhibition for this compound: `O=C(COc1ccccc1)N(Cc1ccc(-c2ccc(CNC3Cc4ccccc4C3)cc2)cc1)C1CCNCC1`
Resp: 2.61

----------
target: Hexose transporter 1 (Plasmodium falciparum) (UniProt O97467); experiment: ST_JUDE_LEISH: Cytotoxicity at 2uM final concentration against transgenic Leishmania Mexicana promastigotes LmPfHT that are glucose transport deficient and complemented with the Plasmodium falciparum hexose transporter. Activity is measured by DNA content using SYBR green in vitro; assay type: functional
Consider the following compounds and their measured inhibition readings.
All answers are understood in %, so give the number only.

INSERT INTO results (query_smiles, target_entity, numeric_result) VALUES
  ('O=C(NCc1ccco1)c1ccc(S(=O)(=O)c2ccc(Cl)cc2)cc1', 'Hexose transporter 1 (Plasmodium falciparum) (UniProt O97467)', 1.22),
  ('CC(=O)Nc1ccc(CN(Cc2ccc(OC(C)(C)C)cc2)Cc2ccc3c(c2)OCCO3)cc1', 'Hexose transporter 1 (Plasmodium falciparum) (UniProt O97467)', 3.27),
  ('COc1ccc(CNCc2ccccc2)cc1-c1ccc(S(=O)(=O)NCCN2CCCC2)c(F)c1', 'Hexose transporter 1 (Plasmodium falciparum) (UniProt O97467)', 13);

Req: Provide one value: measured inhibition of `Cc1cnc(C(=O)Nc2cccc(-c3cccc(-c4nc5cc(F)ccc5[nH]4)c3)c2)cn1`
Resp: 5.55

Req: Input `Cc1cc(-c2cccc3c(NC(=O)N4CCc5cc6nccc(N7CCN8CCC[C@H]8C7)c6cc54)cccc23)cc(C)n1` , output reported inhibition.
Resp: 2.56

----------
molecular target: Glucose transporter (Leishmania mexicana); assay: ST_JUDE_LEISH: Cytotoxicity at 2uM final concentration against transgenic Leishmania Mexicana promastigotes LmGT2 that are glucose transport deficient and complemented with the L. Mexicana glucose transporter 2. Activity is measured by DNA content using SYBR green in vitro; type: functional
Recorded inhibition for the following compounds
Numeric answer only, unit % assumed.

Req: Determine from records and report inhibition for CC1CN(c2cnn(C/C=C/c3ccc(NC(=O)c4ccc5nonc5c4)cc3)c(=O)c2Cl)CC(C)N1 (stereo not drawn)
Resp: 3.26

----------
Recorded inhibition by entry
biological target: Hexose transporter 1 (Plasmodium falciparum) (UniProt O97467); assay: ST_JUDE_LEISH: Cytotoxicity at 2uM final concentration against transgenic Leishmania Mexicana promastigotes LmPfHT that are glucose transport deficient and complemented with the Plasmodium falciparum hexose transporter. Activity is measured by DNA content using SYBR green in vitro; assay type: functional
Response body: numeric value in %, unit text excluded.

Use the examples below as a reference point.
INSERT INTO measurements (molecule, target_entity, units_label, numeric_result) VALUES
  ('O=C(NCCCNc1ccc2ccccc2n1)c1cc2c(Cl)cc(Cl)cc2[nH]1', 'Hexose transporter 1 (Plasmodium falciparum) (UniProt O97467)', '%', -0.36),
  ('COc1cc(C(=O)NCCCN2CCN(c3cccc(Cl)c3)CC2)ccc1-c1cc2cc(Cl)c(Cl)cc2[nH]1', 'Hexose transporter 1 (Plasmodium falciparum) (UniProt O97467)', '%', 4.17),
  ('CCCCN(CCCC)CC(O)c1cc(-c2ccc(Cl)cc2)nc2c(Cl)cc(Cl)cc12 (stereo not drawn)', 'Hexose transporter 1 (Plasmodium falciparum) (UniProt O97467)', '%', 7.36),
  ('NC1CCCN(Cc2cccc(-c3ccc(-c4nc5cc(F)ccc5[nH]4)cc3)c2)C1 (stereo not drawn)', 'Hexose transporter 1 (Plasmodium falciparum) (UniProt O97467)', '%', 3.14),
  ('COc1ccccc1CCNc1nc(C)cc(N[C@@H](Cc2ccccc2)C(=O)NCCc2ccccc2)n1', 'Hexose transporter 1 (Plasmodium falciparum) (UniProt O97467)', '%', 7.61);

Now, please, on to the next molecule.
Req: Recall and state the measured inhibition for CCCN(CC1CC1)c1ncc(-c2cccc(CNCCC3CCCN3C)c2)cn1 (stereo not drawn) .
Resp: 26.8

----------
biological target: Hexose transporter 1 (Plasmodium falciparum); test: ST_JUDE_LEISH: Cytotoxicity at 2uM final concentration against transgenic Leishmania Mexicana promastigotes LmPfHT that are glucose transport deficient and complemented with the Plasmodium falciparum hexose transporter. Activity is measured by DNA content using SYBR green in vitro; assay type: functional
This section presents compounds with their documented inhibition values.
Mention the unit after the number when you answer.

A selection of reference data follows.
INSERT INTO results (compound, readout_kind, result) VALUES
  ('CN(CCCCCN1CCC(NC(=O)Nc2ccc(Oc3ccccc3)cc2)C1)C(=O)/C=C/c1ccc(Cl)c(Cl)c1 (stereo not given)', 'inhibition', '6.7%'),
  ('O=C(Nc1cccc(-c2nn3ccccc3c2-c2ccnc(Nc3ccccc3)n2)c1)c1c(F)cccc1F', 'inhibition', '5.19%'),
  ('COc1ccc(Br)cc1C1Nc2ccc3ccccc3c2C2=C1C(=O)CC(c1ccccc1)C2 (stereo not given)', 'inhibition', '2.25%');

Req: Identify inhibition associated with the compound O=c1cc(NCCCNC2CCc3ccc(Cl)cc32)[nH]c2ccccc12 (stereo not given)
Resp: -0.73%

Req: Fill in reported inhibition for this entry: `O=C(/C=C/c1ccc(Cl)c(Cl)c1)NCCCCCCN1CCN(C(=O)Nc2cc(F)cc(F)c2)CC1`
Resp: 5.75%

----------
biological target: Hexose transporter 1 (Plasmodium falciparum); assay: ST_JUDE_LEISH: Cytotoxicity at 2uM final concentration against transgenic Leishmania Mexicana promastigotes LmPfHT that are glucose transport deficient and complemented with the Plasmodium falciparum hexose transporter. Activity is measured by DNA content using SYBR green in vitro; assay type: functional
readout kind: inhibition (%)
Give just the number in %; leave the unit off.

As a guide, the following entries are already answered.
INSERT INTO results (compound, target_entity, numeric_result) VALUES
  ('O=C(NC(c1ccc(Cl)cc1)c1ccc2cccnc2c1O)c1ccccc1 (centres undefined)', 'Hexose transporter 1 (Plasmodium falciparum)', -0.02),
  ('Cc1ccccc1NC(=O)C1CSCN1C(=O)OCc1ccccc1 (centres undefined)', 'Hexose transporter 1 (Plasmodium falciparum)', -0.23),
  ('O=C(Nc1ccc2ccccc2c1)c1ccc(CN2CCC(Cc3ccccc3)CC2)cc1', 'Hexose transporter 1 (Plasmodium falciparum)', -3.63);

Now take the following compound into account.
Req: Consider the compound CCC(C)NS(=O)(=O)c1ccc2nc(Nc3ccc(C)cc3)n(C3CCCCC3)c2c1 (centres undefined) and give its recorded inhibition.
Resp: 4.02

----------
biological target: Hexose transporter 1 (Plasmodium falciparum) (UniProt O97467); assay: ST_JUDE_LEISH: Cytotoxicity at 2uM final concentration against transgenic Leishmania Mexicana promastigotes LmPfHT that are glucose transport deficient and complemented with the Plasmodium falciparum hexose transporter. Activity is measured by DNA content using SYBR green in vitro; assay type: functional
Each entry below carries its reported inhibition.
Respond with the bare value in %.

Req: State, in one line, measured inhibition of `CCCCCCCN1CC[C@@H](CCCc2ccnc3ccc(OCCC4CCNCC4)cc23)[C@@H](CC)C1`
Resp: 7.46

Req: Given the compound `CC(C)C[C@@H](/C=N/N1CCNC1=O)NC(=O)[C@H](CC(C)C)NC(=O)c1ccc(OCCN2CCOCC2)cc1` , write its reported inhibition.
Resp: 6.5

Req: Please give measured inhibition of the following entry: `Cc1cc(CNC(=O)[C@H](CC2CCCCC2)Nc2ccc(C#N)c3ccccc23)c(C(F)(F)F)o1`
Resp: 1.57
